Each recorded value in this set is attributed to patent US20090203692A1.

molecular target: hYAK3 (Homo sapiens, UniProt O43781); construct: GST (N); His6 (C); test: YAK3 Scintillation Proximity Assay using Ser164 of myelin basic protein as the phosphoacceptor (kinase assay of purified hYAK3); conditions: purified GST-hYak3-His6 4 nM; 1 μM ATP; 4 μM Ser164 peptide; 2 hours at room temperature; pIC50=-Log10(K)
Sequence (O43781 142-526): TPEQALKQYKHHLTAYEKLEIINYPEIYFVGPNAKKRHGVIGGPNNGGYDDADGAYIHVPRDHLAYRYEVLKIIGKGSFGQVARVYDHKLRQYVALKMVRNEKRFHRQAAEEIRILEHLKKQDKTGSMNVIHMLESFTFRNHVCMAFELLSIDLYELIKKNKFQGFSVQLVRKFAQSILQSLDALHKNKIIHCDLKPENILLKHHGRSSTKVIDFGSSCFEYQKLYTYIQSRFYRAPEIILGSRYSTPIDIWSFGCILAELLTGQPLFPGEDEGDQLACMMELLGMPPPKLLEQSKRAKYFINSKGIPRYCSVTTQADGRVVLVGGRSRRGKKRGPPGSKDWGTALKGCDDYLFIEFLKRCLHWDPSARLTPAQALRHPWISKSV
readout.name: IC50 (nM)
Kindly answer with a numeric value in nM, unit omitted.

Req: Request the reported IC50 associated with `O=C1N=C(Nc2cccnc2Cl)S/C1=C\c1ccc2ncccc2c1`
Resp: 1.58
